pIC50 values for the binders below.
TARGET_SYSTEM: T1, hFc tagged human LAG3 ECD recombinant protein (human, UniProt P18627 23-450)
T1 construct: range 23-450; also called biotin labelled hFc tagged human LAG3 ECD; not shown: human IgG Fc tag
T1 sequence (looked up): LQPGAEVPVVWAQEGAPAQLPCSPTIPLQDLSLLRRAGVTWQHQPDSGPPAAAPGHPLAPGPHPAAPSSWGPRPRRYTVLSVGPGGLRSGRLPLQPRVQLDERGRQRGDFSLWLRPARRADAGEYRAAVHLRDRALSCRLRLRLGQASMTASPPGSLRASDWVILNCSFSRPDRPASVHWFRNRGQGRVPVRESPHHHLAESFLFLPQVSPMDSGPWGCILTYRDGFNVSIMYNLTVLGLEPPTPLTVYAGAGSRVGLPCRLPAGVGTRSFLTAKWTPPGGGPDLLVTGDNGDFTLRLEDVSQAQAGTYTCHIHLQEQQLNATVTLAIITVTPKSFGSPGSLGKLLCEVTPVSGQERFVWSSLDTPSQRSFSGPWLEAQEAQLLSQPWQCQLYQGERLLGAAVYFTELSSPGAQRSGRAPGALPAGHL
METHOD_DESCRIPTION: competitive ELISA format II: biotin hFc-LAG3 ECD binding to coated His-FGL1
Description: After washing, HRP labeled anti-His 2nd antibody (Sigma) was added and incubated at 37° C. for 1 hour. Then, 100 μl/well of TMB solution (Biotechnology) was added. After incubation for 15 minutes at room temperature, the reaction was stopped by the addition of 50 μl of 1N HCl. OD 450 nm was read. […] After washing, HRP labeled anti-SA 2nd antibody (Sigma) was added and incubated at 37° C. for 1 hour. […] OD 450 nm was read. […] Fluorescence intensity was detected.
pIC50: −log10 of the molar value.

[
  {
    "BINDER": "023c (antibody, human IgG4, V domains shown, human IgG4 S228P / kappa chimeric antibody; also called chimeric antibody 023; ES005-023c; not shown: human kappa light chain constant region (pcDNA3.4-hIgGk vector)) VH: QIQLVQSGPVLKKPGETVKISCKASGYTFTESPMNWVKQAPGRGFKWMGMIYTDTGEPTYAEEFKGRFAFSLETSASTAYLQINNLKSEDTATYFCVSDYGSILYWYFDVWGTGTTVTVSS VL: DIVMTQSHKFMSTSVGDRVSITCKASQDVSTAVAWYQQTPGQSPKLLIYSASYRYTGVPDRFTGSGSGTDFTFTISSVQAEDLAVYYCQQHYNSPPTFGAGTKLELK",
    "pIC50": 8.82
  },
  {
    "BINDER": "hu023.13 (antibody, human IgG4, V domains shown, humanized from 023c) VH: QIQLVQSGPELKKPGASVKISCKASGYTFTESPMNWVRQAPGQGFEWMGIIYTDTGEPTYAEEFKGRFVFSLDTSVSTAYLQISSLKAEDTAVYFCVSDYGSILYWYFDVWGQGTLVTVSS VL: DIQMTQSPSSLSASVGDRVTITCKASQDVSTAVAWYQQKPGKAPKLLIYSASYRYTGVPSRFSGSGSGTDFTLTISSLQPEDFATYYCQQHYNAPPTFGQGTKLEIK",
    "pIC50": 8.92
  },
  {
    "BINDER": "hu023.11 (antibody, human IgG4, V domains shown, humanized from 023c) VH: QVQLVQSGPELKKPGASVKVSCKASGYTFTESPMNWVRQAPGQGFEWMGIIYTDTGEPTYAEEFKGRFVFSLDTSVSTAYLQISSLKAEDTAVYFCVSDYGSILYWYFDVWGQGTLVTVSS VL: DIQMTQSPSSLSASVGDRVTITCKASQDVSTAVAWYQQKPGKSPKLLIYSASYRYTGVPSRFSGSGSGTDFTFTISSLQPEDFATYYCQQHYNAPPTFGQGTKLEIK",
    "pIC50": 8.92
  }
]
